# Test system: Es-2
# testProtocol: Primary qHTS to identify gynecologic anti-cancer compounds using libraries of approved drugs and bioactive compounds (AID 1345084); further: on the % scale 0 is the no-effect control and ±100 the full control effect; nearly all actives have a fitted effect of over 55% in size
# testConditions: Gynecologic cancer cell panel viability, ATPlite luminescence, 48 h; series mostly up to 57.5 µM
Inconclusive results are not listed. Calls of active or inactive are those of the source. The call rests on the fitted dose curve; in most records, active means well fitted cell-killing curve with a large enough effect; inconclusive means small, poorly fitted or top-dose-only effect, or effect the other way; inactive means flat fitted curve, though single readings scatter.
observationType: activity change, negative = cytotoxicity

Consider the reported activity change, negative = cytotoxicity for these molecules:
{"molecule": "COc1ccc(/C=C/C(=O)O[C@@H]2[C@@H](OC(C)=O)[C@@H](OC(C)=O)[C@H](O[C@H]3[C@@H]4C=CO[C@@H](O[C@@H]5O[C@H](CO)[C@@H](O)[C@H](O)[C@H]5O)[C@@H]4[C@@]4(CO)O[C@@H]34)O[C@H]2C)cc1O", "activity change, negative = cytotoxicity": "inactive"}
{"molecule": "CC1=CCC2C(C)(CO)CCCC2(CO)C1CO (stereo unspecified)", "activity change, negative = cytotoxicity": "inactive"}
{"molecule": "CC1=C2C(=O)O[C@@H](c3ccoc3)[C@]2(C)CCC1", "activity change, negative = cytotoxicity": "inactive"}
{"molecule": "C/C(=C\\CCC(C(=O)O)C1CCC2(C)C3=C(CCC12C)C1(C)CCC(=O)C(C)(C)C1CC3)C(=O)O (stereo unspecified)", "activity change, negative = cytotoxicity": "inactive"}
{"molecule": "CC1(C)CC2C(O)C3=C(CC(C)(O)C2C1)C(=O)OC3O (stereo unspecified)", "activity change, negative = cytotoxicity": "inactive"}

Consider the record given below.
### Prompt Look at this molecule and give its reported activity change, negative = cytotoxicity. C[C@@H]1O[C@@H](O[C@H]2[C@H](O)[C@@H](O)[C@H](OC[C@H]3O[C@@H](OC(=O)[C@]45CCC(C)(C)C[C@H]4C4=CCC6[C@@]7(C)C[C@H](O)[C@H](O[C@@H]8O[C@H](CO)[C@@H](O)[C@H](O)[C@H]8O)[C@@](C)(C(=O)O)C7CC[C@@]6(C)[C@]4(C)CC5)[C@H](O[C@@H]4O[C@H](CO)[C@@H](O)[C@H](O)[C@H]4O)[C@@H](O)[C@@H]3O)O[C@@H]2CO)[C@H](O)[C@H](O)[C@H]1O (stereo partly specified)
### Response 9.17% [at 6.55 µM] (inactive)

* * *

# testProtocol: qHTS Assay for Identification of Small Molecule Antagonists for NFkB Signaling Pathway. (AID 624479);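 further: pathway stimulated with TNF alpha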
# testConditions: NFkB pathway reporter cell assay, antagonist mode; series mostly up to 38.3 µM
Calls of active or inactive are those of the source. The call rests on the fitted dose curve. *1 amine or outer side, *2 acyl side, *3 side chain or, on linkers, in order; H or OH if unused. Where a SMILES comes first, the peptide text is derived from it. Bridges are numbered along the chain shown (N, C = ends). Roman numbers before positions name the chains, in order. [ ]: non-standard residue; d: D form. ξ: configuration not given here. Actinocin(9to1) = Cc1c2oc3c(C)ccc(C(=O)[*:1])c3nc-2c(C(=O)[*:2])c(N)c1=O; ξNMeV = CNC(C(=O)O)C(C)C; ξV = CC(C)C(N)C(=O)O; Sar = CNCC(=O)O
Outcomes you can answer with include only these: active, inactive

### Prompt Check the results log: what was the call for CCC1(O)CC2CN(CCc3c([nH]c4ccccc34)[C@@](C(=O)OC)(c3cc4c(cc3OC)N(C=O)[C@H]3[C@](O)(C(=O)OC)[C@H](OC(C)=O)[C@]5(CC)C=CCN6CC[C@]43[C@@H]65)C2)C1 (some centres not stated) ?
### Response inactive

### Prompt Check the results log: what was the call for "CCCCCCCCCCCCCCCCCCOP(=O)([O-])OC1CC[N+](C)(C)CC1" ?
### Response inactive

### Prompt Check the results log: what was the call for CNC1CCN(C(Cc2cccc(-c3ccncc3)c2)C(=O)c2sc3c(F)ccc(F)c3c2Cl)CC1 (configuration not stated) ?
### Response inactive

### Prompt Check the results log: what was the call for Cc1nnc(C(C)C)n1C1CC2CCC(C1)N2CC[C@H](NC(=O)C1CCC(F)(F)CC1)c1ccccc1 (some centres not stated) ?
### Response inactive

### Prompt Check the results log: what was the call for "COC(=O)C1=C(C)NC(C)=C(C(=O)OCCCN2CCC(c3ccccc3)(c3ccccc3)CC2)[C@H]1c1cccc([N+](=O)[O-])c1" ?
### Response active

### Prompt Check the results log: what was the call for Cc1c2oc3c(C)ccc(C(=O)N[C@@H]4C(=O)NC(C(C)C)C(=O)N5CCC[C@H]5C(=O)N(C)CC(=O)N(C)C(C(C)C)C(=O)O[C@@H]4C)c3nc-2c(C(=O)N[C@@H]2C(=O)NC(C(C)C)C(=O)N3CCC[C@H]3C(=O)N(C)CC(=O)N(C)C(C(C)C)C(=O)O[C@@H]2C)c(N)c1=O (some centres not stated) (I: T[ξV]P[Sar][ξNMeV] / II: T[ξV]P[Sar][ξNMeV]; ester I:1-I:C, II:1-II:C; linker I:N-II:N via Actinocin(9to1)) ?
### Response active

### Prompt Check the results log: what was the call for CCC1(Cc2ccc(N)cc2)CCC(=O)NC1=O (configuration not stated) ?
### Response inactive

* * *

# System: CRL-7250
# testProtocol: Cytotoxic Profiling of Annotated Libraries Using Quantitative High-Throughput Screening (AID 1296008); further: on the % scale 0 is the no-effect control and ±100 the full control effect; nearly all actives have a fitted effect of over 60% in size
# testConditions: Five cell lines viability, CellTiter-Glo ATP luminescence, 48-72 h; active compounds read low
Inconclusive results are not listed.
observationType: max response (%)
Number in %, nothing else.

### Prompt Look at this compound and give its reported max response. "Cc1cn2c(N)c(Cl)cc(C(=O)NCC3CCN(CC(C)C)CC3)c2n1"
### Response -6.05

### Prompt Look at this compound and give its reported max response. "OCc1ccccc1O[C@@H]1O[C@H](CO)[C@@H](O)[C@H](O)[C@H]1O"
### Response -0.323

### Prompt Look at this compound and give its reported max response. NC(=O)c1ccc(OCC2NC(=O)C3CCCN3C2=O)cc1 (stereo not given)
### Response -2.01

### Prompt Look at this compound and give its reported max response. "O=C(O)c1cc(O[C@@H]2O[C@H](CO[C@@H]3OC[C@@H](O)[C@H](O)[C@H]3O)[C@@H](O)[C@H](O)[C@H]2O)c2ccccc2c1O"
### Response 3.92

### Prompt Look at this compound and give its reported max response. CC(C)(C)c1cc(CN2CCN(CC(O)c3ccc(Cl)cc3)CC2)cc(C(C)(C)C)c1O (stereo not given)
### Response -1.02

* * *

# systemName: Luciferin 4-monooxygenase (Photinus pyralis)
# testProtocol: Primary firefly luciferase (FLuc) qHTS assay for identification of artifact compounds. (AID 1845220); further: nearly all actives have a fitted effect of over 60% in size;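 on activity change, negative = inhibition: plate controls were DMSO vehicle for no effect and no enzyme for full effect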
# testConditions: purified firefly luciferase, luminescence, 5 min; series mostly up to 54.1 µM
# Excerpt: PI: Alexander Tropsha Ph.D. UNC Eshelman School of Pharmacy University of North Carolina, Chapel Hill, North Carolina Hits from high-throughput screening (HTS) of chemical libraries are often false positives due to their interference with the assay detection technology. […] Using these curated datasets, we developed and validated several Quantitative Structure-Interference Relationship (QSIR) models to predict nuisance behavior. […] 6; Detection; Luminescence, ViewLux microplate reader. […]
The source made the active and inactive calls. The call rests on the fitted dose curve; in most records, active means well fitted inhibition curve with a large enough effect; inconclusive means small, poorly fitted or top-dose-only effect; inactive means flat fitted curve, though single readings scatter.
observationType: activity change, negative = inhibition

{"compound": "CC1=CCC2C(C)(CO)CCCC2(C)C1CC12OC1C(O)C(CO)=CC2O (stereo not drawn)", "observationType": "activity change, negative = inhibition", "measuredValue": "inactive"}
{"compound": "COc1cc(/C=C/C(=O)OC2CC(OC(C)=O)C(OC(C)=O)C3C2CCC2C(=O)OC(c4ccoc4)CC23C)ccc1O[C@@H]1O[C@H](CO)[C@@H](O)[C@H](O)[C@H]1O (stereo partly drawn)", "observationType": "activity change, negative = inhibition", "measuredValue": "inactive"}
{"compound": "CC(=O)OCC(=O)O[C@@H]1[C@H]2[C@@H](OC(=O)c3ccccc3)[C@@H](C)C[C@]2(O)[C@H](OC(C)=O)C2(C)[C@H]3CC(C)(C)C(=O)[C@@H]3CC1(OC(C)=O)[C@@H]2OC(C)=O (stereo partly drawn)", "observationType": "activity change, negative = inhibition", "measuredValue": "inactive"}

* * *

# systemName: Estrogen receptor (Homo sapiens) (UniProt P03372)
# Sequence (P03372 whole entry, looked up): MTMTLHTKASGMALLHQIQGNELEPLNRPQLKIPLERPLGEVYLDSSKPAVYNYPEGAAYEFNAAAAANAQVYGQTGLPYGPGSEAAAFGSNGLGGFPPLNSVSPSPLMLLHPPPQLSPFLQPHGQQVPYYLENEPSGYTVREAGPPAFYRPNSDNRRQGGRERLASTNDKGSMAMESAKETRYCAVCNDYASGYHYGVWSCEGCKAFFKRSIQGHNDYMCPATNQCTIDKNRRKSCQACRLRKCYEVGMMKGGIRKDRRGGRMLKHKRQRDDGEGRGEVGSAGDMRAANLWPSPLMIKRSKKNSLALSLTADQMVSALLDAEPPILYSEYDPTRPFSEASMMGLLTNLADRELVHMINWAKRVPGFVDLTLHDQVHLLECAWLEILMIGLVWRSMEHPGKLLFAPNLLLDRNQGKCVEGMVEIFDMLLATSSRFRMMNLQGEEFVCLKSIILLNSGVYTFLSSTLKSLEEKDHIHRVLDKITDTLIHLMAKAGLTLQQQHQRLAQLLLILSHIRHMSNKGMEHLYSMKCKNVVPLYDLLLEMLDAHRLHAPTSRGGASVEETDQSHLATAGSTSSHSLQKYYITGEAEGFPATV
# testProtocol: qHTS assay for small molecule agonists of estrogen receptor alpha signaling (AID 588514); further: nearly all actives have a fitted effect of over 70% in size; further: potency means the concentration at half of the fitted maximal effect
# testConditions: ER-alpha-UAS-bla HEK293, beta-lactamase ratio, 18 h; series mostly up to 76.8 µM
Records with an inconclusive call do not appear. Calls of active or inactive are those of the source. The call rests on the fitted dose curve.
observationType: Potency

{"compound": "CC(O)CO (configuration not stated)", "Potency": "inactive"}
{"compound": "CCCCCCCC(=O)O", "Potency": "inactive"}
{"compound": "CC1=C(/C=C/C(C)=C/C=C/C(C)=C/CO)C(C)(C)CCC1", "Potency": "3.16 µM (active)"}
{"compound": "O=CCCCC=O", "Potency": "inactive"}
{"compound": "CCOc1ccc2c(c1)C(C)=CC(C)(C)N2", "Potency": "inactive"}

### Prompt Look at this compound and give its reported Potency. "CCCCCCCC/C=C\CCCCCCCC(=O)O"
### Response inactive

### Prompt Look at this compound and give its reported Potency. "CC1=C2[C@@H]([C@H](C)CC[C@H]2/C=C(\C)C(=O)O)[C@H](O)C1"
### Response inactive
